# Measured Target: T1, recombinant human CD3 epsilon/delta heterodimer (human, UniProt P07766 23-126; P04234 22-105)
# T1 construct: Recombinant protein in solution (200-50 nM) in the Octet assay; also called hCD3 E/D; human CD3E/D
# T1 sequence (P07766 23-126, stated change not applied, chain 1 of 2): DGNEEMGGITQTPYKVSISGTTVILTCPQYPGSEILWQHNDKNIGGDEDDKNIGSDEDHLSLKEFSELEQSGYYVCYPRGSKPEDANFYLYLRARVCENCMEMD
# T1 sequence (P04234 22-105, stated change not applied, chain 2 of 2): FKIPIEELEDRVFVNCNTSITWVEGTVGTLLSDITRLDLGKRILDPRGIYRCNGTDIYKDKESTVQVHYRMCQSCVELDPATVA
# Assay Procedure: Octet BLI, mAb on FAB2G sensor, hCD3 E/D 200-50 nM; R^2 0.97
// koff lookup, one value per entry
API: value field is a number in s⁻¹; no unit string.

Worked cases, answers included:
ABL-CD3-17 (antibody, V domains shown, Chimeric hybridoma mAb: human V, CH1, upper hinge; mouse middle hinge, CH2, CH3) VH: EVQLVESGGGLVQPGGSLRLSCAASGFTFSRYSINWVRQAPGKGLEWVSYISSSSSTIYYADSVKGRFTISRDNAKNSLYLQMNSLRDEDTAVYYCARERWELLYFDYWGQGTLVTVSS VL: NFMLTQPHSVSESPGKTVTISCTRSSGSIASKYVQWYQQRPGSSPTTVIYEDNQRPSGVPDRFSGSIDSSSNSASLTISGLKTEDEADYYCQSYDSNNRVFGGGTKLTVL = 0.0318
ABL-CD3-35 (antibody, V domains shown, Chimeric hybridoma mAb: human V, CH1, upper hinge; mouse middle hinge, CH2, CH3) VH: EVQLVESGGGLVKPGGSLRLSCAASGFTFSSYSMNWVRQAPGKGLEWVSSVNSRGSYIYYADSVKGRFTISRDNAKDSLYLQMNSLRADDTAVYYCARDRRELLLDYWGQGTLVTVSS VL: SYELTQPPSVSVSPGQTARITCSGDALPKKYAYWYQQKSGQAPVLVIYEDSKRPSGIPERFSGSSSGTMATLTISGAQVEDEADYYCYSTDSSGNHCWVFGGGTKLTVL = 0.0271
ABL-CD3-14 (antibody, V domains shown, Chimeric hybridoma mAb: human V, CH1, upper hinge; mouse middle hinge, CH2, CH3) VH: EVQLVESGGGLVKPGGSLRLSCAASGFTCSSYSMTWVRQAPGKGLEWVSSISRRSSYIYYADSVKGRFTISRDNAKNSLYLQLNSLRAEDTAVYYCARERWELLYFDYWGQGTLVTVSS VL: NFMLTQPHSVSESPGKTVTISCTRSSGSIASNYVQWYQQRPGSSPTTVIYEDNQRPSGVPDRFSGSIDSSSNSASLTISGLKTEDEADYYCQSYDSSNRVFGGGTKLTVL = 0.00152

With those in mind, consider the next binder.
Given ABL-CD3-38 (antibody, V domains shown, Chimeric hybridoma mAb: human V, CH1, upper hinge; mouse middle hinge, CH2, CH3) VH: QGQLQQWGAGLLKPSETLSLTCAVYGGSFSGYYWSWIRLPPGKGLEWIGEINHSGNTNYNPSLKSRVTISVDTSKNQFSLQLSSVTAADTAVYYCAKEVEIWGYFDYWGQGTLVTVSS VL: QSVLTQPPSVSGAPGQRVTISCTGSSSNIGAGYDVHWYQQLPGTAPKLLIYGNSNRPSGVPDRFSGSKSGTSASLAITGLQAEDETDYNCQSYDSSLSGYVFGTGTKVTVL , state its recorded koff. 0.00035
